# assayMethodText: SK-BR-3 cell growth inhibitors, pilot screen, 24 h, human (AID 572);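 note: compound exposure lasted between 18 and 24 h rather than exactly 24 h; 100% = carrier-treated control wells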
# experimentalSetup: SK-BR-3 viability, CellTiter-Glo luminescence, at 10 µM, stronger effect = lower value
Please respond with reported viability for every item in the list.
Write down the numeric answer in % and omit the unit.

Reported viability ( COc1ccc(CCN2C(=O)CCC2(C)C(=O)NCc2cccnc2)cc1OC (stereo unspecified) ) = 106

Reported viability ( O=C1CCC(C(=O)N(Cc2ccco2)C2(C(=O)NC3CCCC3)CCCCC2)N1 (stereo unspecified) ) = 94

Reported viability ( COc1cccc(NC(=O)COC(=O)c2cccnc2)c1 ) = 91

Reported viability ( Cc1csc(SCCn2c(N3CCCC3)nc3c2c(=O)[nH]c(=O)n3C)n1 ) = 94

Reported viability ( Oc1c(I)cc(I)c2cccnc12 ) = 61

Reported viability ( CC(=O)NC1(C(F)(F)F)NC(=O)N(CC(C)C)C1=O (stereo unspecified) ) = 103

Reported viability ( C(=C\c1ccccc1)/CSc1nnc(-c2ccccn2)n1Cc1ccco1 ) = 84

Reported viability ( COc1ccc(-c2n[nH]c(C)c2-c2ccc(Cl)cc2)c(O)c1OC ) = 83.5

Reported viability ( COc1ccc(C2c3c(oc4ccccc4c3=O)C(=O)N2Cc2ccncc2)cc1OC (stereo unspecified) ) = 91

Reported viability ( CC(=O)c1cccc(NC(=O)NCc2ccccn2)c1 ) = 91

Reported viability ( O=C(CSc1nnc(COc2ccc(Cl)cc2)o1)OC1CCCCC1 ) = 106

###

# assayMethodText: growth inhibitors of H69AR lung tumor, primary screen, human, duplicate replicates (AID 580);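 note: 100% = mean luminescence of untreated wells and 0% = no signal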
# experimentalSetup: H69AR lung tumor cells viability, ATP luminescence, 72 h; at 10 µM; stronger effect = lower value
The label Condition met is reserved for viability strictly under 90%; Condition not met covers values equal to or above it.

# input Quick check: viability of Cn1cnc2c1c(=O)[nH]c(=O)n2C under 90%?
# output Condition not met

# input Quick check: viability of COc1ccc(Cn2nnnc2C(c2cccnc2)N2CCN(c3ccc(O)cc3)CC2)cc1 (configuration not stated) under 90%?
# output Condition met

# input Quick check: viability of O=C(Nc1ccc(N2CCOCC2)cc1)C1CC1 under 90%?
# output Condition not met

# input Quick check: viability of C/C(=C\C(=O)O)CC(=O)O under 90%?
# output Condition met

# input Quick check: viability of Cc1nnc(NC2CCCCC2)[nH]c1=O under 90%?
# output Condition met

# input Quick check: viability of COc1ccc(S(=O)(=O)NCCCN2CCOCC2)c2ccccc12 under 90%?
# output Condition met

# input Quick check: viability of COc1ccc(Nc2nc(-c3sc(N)nc3C)cs2)cc1 under 90%?
# output Condition met

# input Quick check: viability of O=C(Nc1cccnc1)c1cc2c(ccc3ccccc32)o1 under 90%?
# output Condition met

###

# assayMethodText: reversal of MRP1-mediated doxorubicin resistance, pilot screen, H69AR cells, doxorubicin co-treatment (AID 601)
# experimentalSetup: H69AR cells + 2 uM doxorubicin, CellTiter-Glo, 72 h; measured here: viability with 2 uM doxorubicin; at 10 µM; stronger effect = lower value
propertyLabel: viability (%)
Write down the numeric answer in % and omit the unit.

Reported viability ( COCc1nnc(SCC(=O)NC(C)c2ccccc2)n1-c1ccccc1 (centres undefined) ) = 105

Reported viability ( COC(=O)Cc1cc(=O)n(-c2ccccc2)[nH]1 ) = 88.4

Reported viability ( CCn1nnnc1SCC(=O)N1c2ccccc2CCc2ccccc21 ) = 92.6

Reported viability ( Cc1cc(C)n(Cc2cc(C)c(Cn3nc(C)cc3C)cc2C)n1 ) = 93.9

Reported viability ( COCCn1nnnc1C(c1cc2ccc(OC)cc2[nH]c1=O)N1CCc2ccccc2C1 (centres undefined) ) = 98.9

Reported viability ( COc1cccc(C(=O)Nc2ccc(NC(C)=O)cn2)c1 ) = 93.2

Reported viability ( S=c1[nH]c2ccc(Cl)cc2[nH]1 ) = 78.7

Reported viability ( COCCCn1nnnc1SCC(=O)Nc1nc(C)c(C)s1 ) = 85.6

Reported viability ( Cc1cc(C)c2c(=O)[nH]c(=O)n(Cc3ccccc3)c2n1 ) = 84.8

Reported viability ( O=C(CSc1nc(C2CCCCC2)n(-c2ccccc2)n1)NCCN1C(=O)CSC1=O ) = 103

Reported viability ( Nc1nnc(Cc2ccc(Cl)cc2)s1 ) = 86.3

Reported viability ( O=C(Cc1cccs1)N(c1ccccc1)C1C=CS(=O)(=O)C1 (centres undefined) ) = 76.7

Reported viability ( CN(c1cccc(NC(=O)COc2ccccc2)c1)S(C)(=O)=O ) = 99

Reported viability ( Cn1cccc1Cc1nnc(SCC(=O)Nc2ccccc2F)n1CCc1ccccc1 ) = 82.1

Reported viability ( CCC(=O)Nc1cc(Cl)ccc1N1CCN(C(=O)CC)CC1 ) = 85

Reported viability ( O=C(Nc1ccc(F)cc1)N(CCCN1CCOCC1)Cc1cc2cc3c(cc2[nH]c1=O)OCO3 ) = 83.1

Reported viability ( FC(F)Oc1cccc2cccnc12 ) = 84.9

Reported viability ( CN(C)CCN(Cc1ccccc1)c1ccccn1 ) = 92.7

Reported viability ( CC1CN(c2nc3ccccc3nc2C(C#N)C(=O)OC2CCCCC2)CC(C)O1 (centres undefined) ) = 83.5

Reported viability ( CCN(CC)C(=O)c1ccc(O)c(OC)c1 ) = 101

Reported viability ( COC(=O)Oc1c(Br)c(=O)oc2ccccc12 ) = 80.1

Reported viability ( O=C(NC1CCCc2ccccc21)C1CCN(c2nnc(-n3cccc3)s2)CC1 (centres undefined) ) = 90.6

Reported viability ( COc1ccc(Cn2nnnc2C(c2cccnc2)N2CCN(c3ccc(O)cc3)CC2)cc1 (centres undefined) ) = 93.2

Reported viability ( COC(=O)c1c(NC(=O)C2CC=CCC2C(=O)O)sc(C(N)=O)c1C (centres undefined) ) = 94

###

Please respond with reported differential viability (reversal) for every item in the list.
# assayMethodText: reversal of MRP1-mediated doxorubicin resistance, pilot screen, H69AR cells, doxorubicin co-treatment (AID 601)
# experimentalSetup: H69AR cells + 2 uM doxorubicin, CellTiter-Glo, 72 h; at 10 µM; stronger effect = higher value
Write down the numeric answer in % and omit the unit.

Reported differential viability (reversal) ( O=S1(=O)C=C(Oc2ccc(F)cc2)c2ccccc21 ) = 4.02

Reported differential viability (reversal) ( COc1cc2c(C#N)c(N3CCN(c4ccccc4OC)CC3)nc(N)c2c(N)n1 ) = 4.45

Reported differential viability (reversal) ( O=C(Cc1ccccc1)Nc1nnc(-c2cccs2)s1 ) = -6.04

Reported differential viability (reversal) ( CC1Cc2ccccc2N1C(=O)c1cccnc1 (stereo unspecified) ) = 2.02

Reported differential viability (reversal) ( CCOC(=O)N1CCN(C(=O)c2ccc(N3C(=O)CCC3=O)cc2)CC1 ) = 17.4

Reported differential viability (reversal) ( COc1ccc(-c2noc(CCN3C(=O)c4ccccc4C3=O)n2)cc1OC ) = 17.8

###

# assayMethodText: reversal of MRP1-mediated doxorubicin resistance, pilot screen, H69AR cells, doxorubicin co-treatment (AID 601)
# experimentalSetup: H69AR cells + 2 uM doxorubicin, CellTiter-Glo, 72 h; measured here: viability with 2 uM doxorubicin; at 10 µM; stronger effect = lower value
The label class 1 is reserved for viability strictly under 90%; class 0 covers values equal to or above it.

# input Quick check: viability of CCOc1ccc(C2C(C#N)=C(N)Oc3cc(C)n(Cc4ccco4)c(=O)c32)cc1OC (centres undefined) under 90%?
# output class 1

# input Quick check: viability of COC(=O)Nc1sc2c(c1C(N)=O)CCCCCC2 under 90%?
# output class 1

# input Quick check: viability of COCc1cc(=O)[nH]c(Nc2nc3ccccc3o2)n1 under 90%?
# output class 1

# input Quick check: viability of COc1ccc(NC(=O)Nc2ccccc2C)c(OC)c1 under 90%?
# output class 1

# input Quick check: viability of CCCn1c(SCC(=O)Nc2nnc(-c3ccccc3)s2)nnc1-c1ccccn1 under 90%?
# output class 0

# input Quick check: viability of O=C(Nc1cc(C(F)(F)F)ccc1N1CCCC1)c1ccc2c(c1)OCO2 under 90%?
# output class 0

# input Quick check: viability of CCC12CN3CC(CC)(CN(C1)C3c1ccc(OC(C)C)cc1)C2=O (centres undefined) under 90%?
# output class 0

# input Quick check: viability of COc1ccc(NC(=O)c2oc3ccccc3c2NC(=O)c2ccco2)cc1 under 90%?
# output class 1

# input Quick check: viability of COc1ccc(NC(=O)CSc2nc3c(c(=O)n2-c2ccc(F)cc2)SCC3)c(OC)c1 under 90%?
# output class 1

# input Quick check: viability of N#Cc1cc2ccc(N3CCOCC3)cc2cc1C#N under 90%?
# output class 1

# input Quick check: viability of COc1ccc(Cl)cc1NC(=O)CSc1nncn1-c1cccnc1 under 90%?
# output class 1

# input Quick check: viability of COC(=O)c1sccc1NC(=O)c1ccncc1 under 90%?
# output class 1

# input Quick check: viability of CCOc1cc(NC(=O)c2ccco2)c(OCC)cc1NC(=O)COc1ccccc1C under 90%?
# output class 1

# input Quick check: viability of CC(C)(C)n1ncc2c(=O)n(CC(=O)NCc3ccccc3)cnc21 under 90%?
# output class 1

# input Quick check: viability of CC(O)Cn1cnc2c1c(=O)n(C)c(=O)n2C (centres undefined) under 90%?
# output class 0

# input Quick check: viability of Cc1cccn2c(=O)c3cc(C(=O)NC4CCCC4)c(=N)n(C4CCCC4)c3nc12 under 90%?
# output class 1

# input Quick check: viability of C[C@]12CCC(=O)C=C1CC[C@@H]1[C@@H]2[C@@H](O)C[C@@]2(C)[C@H]1CC[C@]2(O)C(=O)CO under 90%?
# output class 0
